Measurement Target: equine FcRn (large alpha subunit p51) in complex with equine beta-2-microglobulin (equine) (UniProt F6XZ61)
Method Description: SPR (Biacore), pH 6
Decision: Kd beneath 20 nM gives TRUE; Kd meeting or exceeding 20 nM gives FALSE.

| Binder | Qualitative Label |
| --- | --- |
| equine IgG7 Y436Q mutant (antibody, part only; not given: Variable domains, not shown: another chain or arm of the molecule) constant: ASTTAPKVFPLASHSAATSGSTVALGCLVSSYFPEPVTVSWNSGALTSGVHTFPSVLQSSGLYSLSSMVTVPASSLKSQTYICNVAHPASSTKVDKKIVIKECGGCPTCPECLSVGPSVFIFPPKPKDVLMISRTPTVTCVVVDVGHDFPDVQFNWYVDGVETHTATTEPKQEQNNSTYRVVSILAIQHKDWLSGKEFKCKVNNQALPAPVQKTISKPTGQPREPQVYVLAPHRDELSKNKVSVTCLVKDFYPTDIDIEWKSNGQPEPETKYSTTPAQLDSDGSYFLYSKLTVETNRWQQGTTFTCAVMHEALHNHQTEKSVSKSPGK | TRUE |
| equine IgG7 Y436T mutant (antibody, part only; not given: variable domains, not shown: another chain or arm of the molecule) constant: ASTTAPKVFPLASHSAATSGSTVALGCLVSSYFPEPVTVSWNSGALTSGVHTFPSVLQSSGLYSLSSMVTVPASSLKSQTYICNVAHPASSTKVDKKIVIKECGGCPTCPECLSVGPSVFIFPPKPKDVLMISRTPTVTCVVVDVGHDFPDVQFNWYVDGVETHTATTEPKQEQNNSTYRVVSILAIQHKDWLSGKEFKCKVNNQALPAPVQKTISKPTGQPREPQVYVLAPHRDELSKNKVSVTCLVKDFYPTDIDIEWKSNGQPEPETKYSTTPAQLDSDGSYFLYSKLTVETNRWQQGTTFTCAVMHEALHNHTTEKSVSKSPGK | FALSE |
| equine IgG7 K311C mutant (antibody, part only; not given: variable domains, not shown: another chain or arm of the molecule) constant: ASTTAPKVFPLASHSAATSGSTVALGCLVSSYFPEPVTVSWNSGALTSGVHTFPSVLQSSGLYSLSSMVTVPASSLKSQTYICNVAHPASSTKVDKKIVIKECGGCPTCPECLSVGPSVFIFPPKPKDVLMISRTPTVTCVVVDVGHDFPDVQFNWYVDGVETHTATTEPKQEQNNSTYRVVSILAIQHCDWLSGKEFKCKVNNQALPAPVQKTISKPTGQPREPQVYVLAPHRDELSKNKVSVTCLVKDFYPTDIDIEWKSNGQPEPETKYSTTPAQLDSDGSYFLYSKLTVETNRWQQGTTFTCAVMHEALHNHYTEKSVSKSPGK | TRUE |
| equine IgG7 wild-type (antibody, part only; not given: variable domains; allotype unstated, not shown: another chain or arm of the molecule) constant: ASTTAPKVFPLASHSAATSGSTVALGCLVSSYFPEPVTVSWNSGALTSGVHTFPSVLQSSGLYSLSSMVTVPASSLKSQTYICNVAHPASSTKVDKKIVIKECGGCPTCPECLSVGPSVFIFPPKPKDVLMISRTPTVTCVVVDVGHDFPDVQFNWYVDGVETHTATTEPKQEQNNSTYRVVSILAIQHKDWLSGKEFKCKVNNQALPAPVQKTISKPTGQPREPQVYVLAPHRDELSKNKVSVTCLVKDFYPTDIDIEWKSNGQPEPETKYSTTPAQLDSDGSYFLYSKLTVETNRWQQGTTFTCAVMHEALHNHYTEKSVSKSPGK | FALSE |
| equine IgG7 A426N mutant (antibody, part only; not given: Variable domains, not shown: another chain or arm of the molecule) constant: ASTTAPKVFPLASHSAATSGSTVALGCLVSSYFPEPVTVSWNSGALTSGVHTFPSVLQSSGLYSLSSMVTVPASSLKSQTYICNVAHPASSTKVDKKIVIKECGGCPTCPECLSVGPSVFIFPPKPKDVLMISRTPTVTCVVVDVGHDFPDVQFNWYVDGVETHTATTEPKQEQNNSTYRVVSILAIQHKDWLSGKEFKCKVNNQALPAPVQKTISKPTGQPREPQVYVLAPHRDELSKNKVSVTCLVKDFYPTDIDIEWKSNGQPEPETKYSTTPAQLDSDGSYFLYSKLTVETNRWQQGTTFTCNVMHEALHNHYTEKSVSKSPGK | TRUE |
| equine IgG7 A426F mutant (antibody, part only; not given: variable domains, not shown: another chain or arm of the molecule) constant: ASTTAPKVFPLASHSAATSGSTVALGCLVSSYFPEPVTVSWNSGALTSGVHTFPSVLQSSGLYSLSSMVTVPASSLKSQTYICNVAHPASSTKVDKKIVIKECGGCPTCPECLSVGPSVFIFPPKPKDVLMISRTPTVTCVVVDVGHDFPDVQFNWYVDGVETHTATTEPKQEQNNSTYRVVSILAIQHKDWLSGKEFKCKVNNQALPAPVQKTISKPTGQPREPQVYVLAPHRDELSKNKVSVTCLVKDFYPTDIDIEWKSNGQPEPETKYSTTPAQLDSDGSYFLYSKLTVETNRWQQGTTFTCFVMHEALHNHYTEKSVSKSPGK | TRUE |
| equine IgG7 K311S mutant (antibody, part only; not given: variable domains, not shown: another chain or arm of the molecule) constant: ASTTAPKVFPLASHSAATSGSTVALGCLVSSYFPEPVTVSWNSGALTSGVHTFPSVLQSSGLYSLSSMVTVPASSLKSQTYICNVAHPASSTKVDKKIVIKECGGCPTCPECLSVGPSVFIFPPKPKDVLMISRTPTVTCVVVDVGHDFPDVQFNWYVDGVETHTATTEPKQEQNNSTYRVVSILAIQHSDWLSGKEFKCKVNNQALPAPVQKTISKPTGQPREPQVYVLAPHRDELSKNKVSVTCLVKDFYPTDIDIEWKSNGQPEPETKYSTTPAQLDSDGSYFLYSKLTVETNRWQQGTTFTCAVMHEALHNHYTEKSVSKSPGK | FALSE |
| equine IgG7 A426V mutant (antibody, part only; not given: variable domains, not shown: another chain or arm of the molecule) constant: ASTTAPKVFPLASHSAATSGSTVALGCLVSSYFPEPVTVSWNSGALTSGVHTFPSVLQSSGLYSLSSMVTVPASSLKSQTYICNVAHPASSTKVDKKIVIKECGGCPTCPECLSVGPSVFIFPPKPKDVLMISRTPTVTCVVVDVGHDFPDVQFNWYVDGVETHTATTEPKQEQNNSTYRVVSILAIQHKDWLSGKEFKCKVNNQALPAPVQKTISKPTGQPREPQVYVLAPHRDELSKNKVSVTCLVKDFYPTDIDIEWKSNGQPEPETKYSTTPAQLDSDGSYFLYSKLTVETNRWQQGTTFTCVVMHEALHNHYTEKSVSKSPGK | FALSE |
